Just for reference, ChEMBL document CHEMBL3232706 is where these values come from.

Biological target: 5-hydroxytryptamine receptor 7 (Homo sapiens, UniProt P34969)
Sequence (P34969 whole entry): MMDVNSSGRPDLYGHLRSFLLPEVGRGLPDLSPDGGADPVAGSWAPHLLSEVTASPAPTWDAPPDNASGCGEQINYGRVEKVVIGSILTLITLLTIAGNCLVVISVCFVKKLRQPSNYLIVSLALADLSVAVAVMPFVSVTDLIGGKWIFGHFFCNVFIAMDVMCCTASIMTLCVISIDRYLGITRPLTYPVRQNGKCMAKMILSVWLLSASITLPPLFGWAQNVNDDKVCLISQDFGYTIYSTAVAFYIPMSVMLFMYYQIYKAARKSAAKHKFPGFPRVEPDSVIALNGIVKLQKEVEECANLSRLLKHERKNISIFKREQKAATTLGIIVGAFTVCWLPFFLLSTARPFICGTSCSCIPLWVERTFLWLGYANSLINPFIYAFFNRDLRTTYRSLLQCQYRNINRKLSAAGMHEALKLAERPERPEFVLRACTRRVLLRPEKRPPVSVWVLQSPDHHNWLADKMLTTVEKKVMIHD
Assay: Displacement of [3H]-5-CT from human recombinant 5-HT7 receptor expressed in HEK293 cell membrane after 1 hr by Microbeta scintillation counting analysis
MEASURED ENDPOINT: Ki (nM)

Guide cases for Ki, answers given:
COc1ccccc1N1CCN(CCCCN2C(=O)N(C)C(=O)C2(c2ccccc2)c2ccccc2)CC1; 16
CC1(C)C(=O)N(Cc2ccc(Cl)cc2Cl)C(=O)N1CCCCCN1CCN(c2ccc(Cl)c(Cl)c2)CC1.Cl; 78
CC1(C)C(=O)N(Cc2ccccc2)C(=O)N1CCCCCN1CCN(c2ccc(F)cc2F)CC1.Cl; 172

A. CCOc1ccccc1N1CCN(CCCN2C(=O)N(C)C(=O)C2(c2ccccc2)c2ccccc2)CC1
B. CC1(C)C(=O)N(Cc2ccc(Cl)cc2Cl)C(=O)N1CCCCCN1CCN(c2ccc(Cl)cc2)CC1.Cl
# query: argmin of Ki over A and B Which one? Tell me its label.
A
(A: 95 nM, B: 456 nM)

A. COc1cccc(N2CCN(CCCCCN3C(=O)N(Cc4ccccc4)C(=O)C3(C)C)CC2)c1.Cl
B. COc1ccccc1N1CCN(CCCN2C(=O)N(C)C(=O)C2(c2ccccc2)c2ccccc2)CC1
Hi there! Just curious which has the higher Ki between A and B . Which one? Tell me its label.
B

1. CC1(C)C(=O)N(Cc2ccc(F)cc2)C(=O)N1CCCCCN1CCN(c2ccc(F)cc2F)CC1.Cl
2. CN1C(=O)N(CC(O)CN2CCN(c3ccccc3)CC2)C(c2ccccc2)(c2ccccc2)C1=O (centres undefined)
# query: argmin of Ki over 1 and 2 Which one? Tell me its label.
1

---

Molecular target: 5-hydroxytryptamine receptor 6 (Homo sapiens)
Experiment: Displacement of [3H]-LSD from human recombinant 5-HT6 receptor expressed in HEK293 cell membrane after 1 hr by Microbeta scintillation counting analysis
MEASURED ENDPOINT: Ki (µM)

COc1ccccc1N1CCN(CCCN2C(=O)N(C)C(=O)C2(c2ccccc2)c2ccccc2)CC1; 29.1

P. COc1ccccc1N1CCN(CCCCCN2C(=O)N(Cc3ccccc3)C(=O)C2(C)C)CC1.Cl
Q. COc1ccccc1N1CCN(CCCCN2C(=O)N(C)C(=O)C2(c2ccccc2)c2ccccc2)CC1
R. CN1C(=O)N(CC(O)CN2CCN(c3ccccc3)CC2)C(c2ccccc2)(c2ccccc2)C1=O (configuration not stated)
Sort ascending by Ki. Please list each label once, in the requested order.
Q, P, R
(Q: 3.57 µM, P: 8.61 µM, R: 20.4 µM)

---

Target: 5-hydroxytryptamine receptor 6 (Homo sapiens, UniProt P50406)
Sequence (P50406 whole entry): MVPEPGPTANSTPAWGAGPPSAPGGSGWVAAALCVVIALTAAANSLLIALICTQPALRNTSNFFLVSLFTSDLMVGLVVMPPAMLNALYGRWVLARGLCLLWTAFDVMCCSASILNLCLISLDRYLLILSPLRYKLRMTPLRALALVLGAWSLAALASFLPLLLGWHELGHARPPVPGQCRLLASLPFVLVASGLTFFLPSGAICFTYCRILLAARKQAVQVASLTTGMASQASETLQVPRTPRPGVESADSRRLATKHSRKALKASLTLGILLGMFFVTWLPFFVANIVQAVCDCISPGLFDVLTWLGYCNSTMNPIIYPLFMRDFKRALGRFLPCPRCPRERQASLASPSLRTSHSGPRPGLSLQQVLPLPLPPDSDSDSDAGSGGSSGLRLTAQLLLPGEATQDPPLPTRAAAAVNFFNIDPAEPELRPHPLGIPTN
Assay: Displacement of [3H]-LSD from human recombinant 5-HT6 receptor expressed in HEK293 cell membrane after 1 hr by Microbeta scintillation counting analysis
MEASURED ENDPOINT: Ki (µM)

CC1(C)C(=O)N(Cc2ccc(Cl)cc2Cl)C(=O)N1CCCCCN1CCN(c2cccc(Cl)c2Cl)CC1.Cl; 0.395
CN1C(=O)N(CCCCCN2CCN(c3ccccc3)CC2)C(c2ccccc2)(c2ccccc2)C1=O.Cl; 3.07

1. COc1cccc(N2CCN(CCCCCN3C(=O)N(Cc4ccccc4)C(=O)C3(C)C)CC2)c1.Cl
2. CC1(C)C(=O)N(Cc2ccc(F)cc2)C(=O)N1CCCCCN1CCN(c2ccc(F)cc2F)CC1.Cl
Hi there! Just curious which has the higher Ki between 1 and 2 . Which one? Tell me its label.
2

---

Molecular target: 5-hydroxytryptamine receptor 6 (Homo sapiens)
Assay: Displacement of [3H]-LSD from human recombinant 5-HT6 receptor expressed in HEK293 cell membrane after 1 hr by Microbeta scintillation counting analysis
Format: cell membranes
pKi: −log10 of the molar value.
MEASURED ENDPOINT: pKi

CC1(C)C(=O)N(Cc2ccccc2)C(=O)N1CCCCCN1CCN(c2ccccc2)CC1.Cl; 5.36
COc1ccccc1N1CCN(CCCCCN2C(=O)N(C)C(=O)C2(C)c2ccccc2)CC1.Cl (centres undefined); 4.83
CN1C(=O)N(CCCCCN2CCN(c3ccccc3)CC2)C(C)(c2ccccc2)C1=O.Cl (centres undefined); 5.02
CC1(C)C(=O)N(Cc2ccccc2)C(=O)N1CCCCCN1CCN(c2ccc(F)cc2F)CC1.Cl; 5.13

a. COc1ccccc1N1CCN(CC(O)CN2C(=O)NC(C)(c3ccc(F)cc3)C2=O)CC1.Cl (centres undefined)
b. CCOc1ccccc1N1CCN(CCCN2C(=O)N(C)C(=O)C2(c2ccccc2)c2ccccc2)CC1
c. CN1C(=O)N(CCCCCN2CCN(c3ccccc3F)CC2)C(C)(c2ccccc2)C1=O.Cl (centres undefined)
d. CC1(C)C(=O)N(Cc2ccccc2)C(=O)N1CCCCCN1CCN(c2ccc(F)cc2)CC1.Cl
e. CC1(C)C(=O)N(Cc2ccc(Cl)cc2Cl)C(=O)N1CCCCCN1CCN(c2ccc(Cl)c(Cl)c2)CC1.Cl
Sort ascending by pKi. Please list each label once, in the requested order.
c, a, b, d, e
(c: 4.59, a: 4.97, b: 5.38, d: 5.71, e: 6.50)

---

Target: 5-hydroxytryptamine receptor 1A (Homo sapiens, UniProt P08908)
Sequence (P08908 whole entry): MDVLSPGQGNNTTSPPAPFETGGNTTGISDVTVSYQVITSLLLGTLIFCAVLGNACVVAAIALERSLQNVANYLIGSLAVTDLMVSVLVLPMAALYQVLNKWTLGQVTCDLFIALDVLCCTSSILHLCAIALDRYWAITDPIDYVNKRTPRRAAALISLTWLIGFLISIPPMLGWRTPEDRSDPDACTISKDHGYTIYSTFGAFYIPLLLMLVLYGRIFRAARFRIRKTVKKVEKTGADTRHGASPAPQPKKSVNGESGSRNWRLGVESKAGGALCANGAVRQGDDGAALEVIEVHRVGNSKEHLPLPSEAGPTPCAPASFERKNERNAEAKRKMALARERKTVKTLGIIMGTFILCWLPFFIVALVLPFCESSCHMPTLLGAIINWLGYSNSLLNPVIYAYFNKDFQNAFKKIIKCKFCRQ
Assay: Displacement of [3H]-8-OH-DPAT from human recombinant 5-HT1A receptor expressed in HEK293 cell membrane after 1 hr by Microbeta scintillation counting analysis
MEASURED ENDPOINT: Ki (nM)

Guide cases for Ki, answers given:
CC1(C)C(=O)N(Cc2ccccc2)C(=O)N1CCCCCN1CCN(c2ccccc2F)CC1.Cl; 76
CC1(C)C(=O)N(Cc2ccccc2)C(=O)N1CCCCCN1CCN(c2ccc(F)cc2F)CC1.Cl; 235
CC1(C)C(=O)N(Cc2ccc(Cl)cc2Cl)C(=O)N1CCCCCN1CCN(c2cccc(Cl)c2Cl)CC1.Cl; 88
CN1C(=O)N(CCCCCN2CCN(c3ccccc3)CC2)C(c2ccccc2)(c2ccccc2)C1=O.Cl; 13.2
CC1(C)C(=O)N(Cc2ccc(Cl)cc2Cl)C(=O)N1CCCCCN1CCN(c2ccc(Cl)c(Cl)c2)CC1.Cl; 301
CC1(C)C(=O)N(Cc2ccccc2)C(=O)N1CCCCCN1CCN(c2ccc(F)cc2)CC1.Cl; 201
CCOc1ccccc1N1CCN(CCCN2C(=O)N(C)C(=O)C2(c2ccccc2)c2ccccc2)CC1; 5.5
CN1C(=O)N(CCCCCN2CCN(c3ccccc3F)CC2)C(C)(c2ccccc2)C1=O.Cl (centres undefined); 124
CN1C(=O)N(CC(O)CN2CCN(c3ccccc3)CC2)C(c2ccccc2)(c2ccccc2)C1=O (centres undefined); 324
COc1cccc(N2CCN(CCCCCN3C(=O)N(Cc4ccccc4)C(=O)C3(C)C)CC2)c1.Cl; 45

A. COc1ccccc1N1CCN(CCCCCN2C(=O)N(Cc3ccccc3)C(=O)C2(C)C)CC1.Cl
B. COc1ccccc1N1CCN(CCCN2C(=O)N(C)C(=O)C2(c2ccccc2)c2ccccc2)CC1
# query: argmin of Ki over A and B Which one? Tell me its label.
B
(B: 6.5 nM, A: 26 nM)

---

Biological target: Adrenergic receptor alpha-1 (Rattus norvegicus, UniProt P15823+P23944+P43140)
Assay: Displacement of [3H]prazosin from alpha1 adrenergic receptor in rat cerebral cortex after 30 mins by Microbeta scintillation counting analysis
Format: tissue-based
MEASURED ENDPOINT: Ki (nM)

Guide cases for Ki, answers given:
CC1(C)C(=O)N(Cc2ccc(F)cc2)C(=O)N1CCCCCN1CCN(c2ccc(F)cc2F)CC1.Cl; 38.8
CC1(C)C(=O)N(Cc2ccc(Cl)cc2Cl)C(=O)N1CCCCCN1CCN(c2cccc(Cl)c2Cl)CC1.Cl; 968.8
COc1cccc(N2CCN(CCCCCN3C(=O)N(Cc4ccccc4)C(=O)C3(C)C)CC2)c1.Cl; 97.2
CCOc1ccccc1N1CCN(CCCN2C(=O)N(C)C(=O)C2(c2ccccc2)c2ccccc2)CC1; 2600
COc1ccccc1N1CCN(CCCCCN2C(=O)N(Cc3ccccc3)C(=O)C2(C)C)CC1.Cl; 42.6

P. CN1C(=O)N(CCCCCN2CCN(c3ccccc3)CC2)C(c2ccccc2)(c2ccccc2)C1=O.Cl
Q. CC1(C)C(=O)N(Cc2ccccc2)C(=O)N1CCCCCN1CCN(c2ccccc2)CC1.Cl
# query: argmin of Ki over P and Q Which one? Tell me its label.
P
(P: 6.7 nM, Q: 68 nM)

---

Target: 5-hydroxytryptamine receptor 6 (Homo sapiens)
Assay: Displacement of [3H]-LSD from human recombinant 5-HT6 receptor expressed in HEK293 cell membrane after 1 hr by Microbeta scintillation counting analysis
MEASURED ENDPOINT: Ki (nM)

CC1(C)C(=O)N(Cc2ccc(Cl)cc2Cl)C(=O)N1CCCCCN1CCN(c2ccc(Cl)cc2)CC1.Cl; 2880
CC1(C)C(=O)N(Cc2ccc(F)cc2)C(=O)N1CCCCCN1CCN(c2ccc(F)cc2)CC1.Cl; 1760
CC1(C)C(=O)N(Cc2ccccc2)C(=O)N1CCCCCN1CCN(c2ccccc2F)CC1.Cl; 2510
